The reported numbers originate from patent US12180207B2.

system under test: FGFR1 (SEQ ID NO: 1, amino acids 458-765) (Homo sapiens (Human), UniProt P11362)
Sequence (P11362 458-765): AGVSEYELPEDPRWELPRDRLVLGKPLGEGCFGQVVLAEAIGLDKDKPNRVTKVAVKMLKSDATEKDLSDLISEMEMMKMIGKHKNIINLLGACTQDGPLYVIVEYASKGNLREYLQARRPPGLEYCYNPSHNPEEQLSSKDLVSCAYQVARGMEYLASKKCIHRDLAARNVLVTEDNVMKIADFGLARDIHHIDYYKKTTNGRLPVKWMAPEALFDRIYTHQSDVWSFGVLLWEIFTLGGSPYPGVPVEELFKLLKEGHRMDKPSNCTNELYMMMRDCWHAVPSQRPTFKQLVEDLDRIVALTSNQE
experimental details: LC/MS FGFR1 kobs assay (covalent protein modification)
Assay type: binding
study conditions: 500 nM FGFR1, 3 μM compound
reported endpoint: FGFR1 Enz kobs (min⁻¹)

Some solved entries appear below for comparison.
[[record]]
compound = "C=CC(=O)N1CC(C(=O)N2CCC(n3cnc(-c4cc(OC)c5c(C#N)cnn5c4)c3)CC2)C1 [Example 98]"
unit = "min⁻¹"
recorded_result = 0.00167

[[record]]
compound = "C=CC(=O)N1CC(CN2CCC(n3ncc(-c4cc(OC)c5c(Cl)cnn5c4)c3C)CC2)C1(C)C (stereo not drawn) [Example 120]"
unit = "min⁻¹"
recorded_result = 0.00068

[[record]]
compound = "C=CC(=O)N1CC(C(=O)N2CCC(n3cc(-c4cc(-c5ccc(NC(=O)C6CC6)cc5F)c5c(C#N)cnn5c4)cn3)CC2)C1 [Example 130]"
unit = "min⁻¹"
recorded_result = 0.00132

[[record]]
compound = "C=CC(=O)Nc1ccc(C(=O)N2CC[C@H](n3cc(-c4cc(OC)c5c(C#N)cnn5c4)cn3)C2)c(C)c1 [Example 68]"
unit = "min⁻¹"
recorded_result = 0.00181

[[record]]
compound = "C=CC(=O)N1CC[C@@H](C(=O)N2CCC(n3cc(-c4cc(OC)c5c(C#N)cnn5c4)cn3)CC2)C1 [Example 29]"
unit = "min⁻¹"
recorded_result = 0.00075


1: C=CC(=O)N1CC(CN2CCC(n3cc(-c4cc(OC)c5c(C#N)cnn5c4)cn3)CC2)C1 [Example 132]
2: COc1cc(-c2cnn(C3CCN(C(=O)C4CN(C(=O)/C=C/CN5CC[C@@H](F)C5)C4)CC3)c2)cn2ncc(C#N)c12 [Example 183]
3: C=CC(=O)N1CCC[C@@H](C(=O)N2CCC(n3cc(-c4cc(OC)c5c(C#N)cnn5c4)cn3)CC2)C1 [Example 17]
4: C=CC(=O)N1CC[C@H](C(=O)N2CCC(n3cc(-c4cc(OC)c5c(C#N)cnn5c4)cn3)CC2)C1 [Example 28]
Prompt: Which order do these items take when sorted by rising FGFR1 Enz kobs? List them. Field: ranking. Enter the labels in the order requested.
Response: 3, 4, 1, 2
(3: 0.00041 min⁻¹, 4: 0.00075 min⁻¹, 1: 0.00146 min⁻¹, 2: 0.00259 min⁻¹)

I: C=CC(=O)N1CC(C(=O)N2CCC(n3cc(-c4cc(-c5ccccc5F)c5c(C#N)cnn5c4)cn3)CC2)C1 [Example 131]
II: COc1cc(-c2cnn(C3CCN(C(=O)C4CN(C(=O)/C=C/CN(C)C)C4)CC3)c2)cn2ncc(Cl)c12 [Example 174]
Prompt: Field: lower FGFR1 Enz kobs | Options: I / II Write the label of whichever entry you select.
Response: I
(I: 0.00146 min⁻¹, II: 0.00242 min⁻¹)

----------
system under test: FGFR3 (SEQ ID NO: 5, amino acids 449-759) (Homo sapiens (Human), UniProt P22607)
Sequence (P22607 449-759): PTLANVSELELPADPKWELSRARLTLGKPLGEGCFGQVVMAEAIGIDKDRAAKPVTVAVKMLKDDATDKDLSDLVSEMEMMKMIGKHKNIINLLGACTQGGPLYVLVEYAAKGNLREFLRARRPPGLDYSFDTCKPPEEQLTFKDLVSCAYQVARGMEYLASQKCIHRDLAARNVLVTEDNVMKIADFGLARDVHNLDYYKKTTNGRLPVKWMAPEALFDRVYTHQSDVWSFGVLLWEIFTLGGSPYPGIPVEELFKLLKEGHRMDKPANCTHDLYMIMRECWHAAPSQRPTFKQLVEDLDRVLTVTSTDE
experimental details: LC/MS FGFR3 kobs assay (covalent protein modification)
Type: binding
study conditions: 500 nM FGFR3, 3 μM compound
reported endpoint: FGFR3 Enz kobs (min⁻¹)

Consider the worked cases shown below.
[[record]]
compound = "C=CC(=O)N1CC(C(=O)N2CCC(n3cc(-c4cc(OCC)c5c(C#N)cnn5c4)cn3)CC2)C1 [Example 126]"
reported_endpoint = "FGFR3 Enz kobs"
unit = "min⁻¹"
recorded_result = 0.01992

[[record]]
compound = "C=CC(=O)N1CC(C(=O)N2CCC(n3cc(-c4cc(OC)c5c(C#N)cnn5c4)cn3)CC2)C1 [Example 36]"
reported_endpoint = "FGFR3 Enz kobs"
unit = "min⁻¹"
recorded_result = 0.01426

[[record]]
compound = "C=CC(=O)N1CCC(C(=O)N2CC(n3cc(-c4cc(OC)c5c(C#N)cnn5c4)cn3)C2)CC1 [Example 75]"
reported_endpoint = "FGFR3 Enz kobs"
unit = "min⁻¹"
recorded_result = 0.002

[[record]]
compound = "C=CC(=O)N1CC(C(=O)N2CCN(c3cnc(-c4cc(OC)c5c(C#N)cnn5c4)cn3)CC2)C1 [Example 116]"
reported_endpoint = "FGFR3 Enz kobs"
unit = "min⁻¹"
recorded_result = 0.02585

[[record]]
compound = "C=CC(=O)N1CCN(C(=O)N2CCC(n3cc(-c4cc(OC)c5c(C#N)cnn5c4)cn3)CC2)C[C@@H]1CC#N [Example 135]"
reported_endpoint = "FGFR3 Enz kobs"
unit = "min⁻¹"
recorded_result = 0.02201

[[record]]
compound = "COc1cc(-c2cnn(C3CCN(C(=O)C4CN(C(=O)C5=CCC5)C4)CC3)c2)cn2ncc(C#N)c12 [Example 137]"
reported_endpoint = "FGFR3 Enz kobs"
unit = "min⁻¹"
recorded_result = 0.00097


a: C=CC(=O)N1CC[C@@H](C(=O)N2CCN(c3ccc(-c4cc(OC)c5c(C#N)cnn5c4)cn3)CC2)C1 [Example 110]
b: C=CC(=O)N1CCC(C(=O)N2CCC(n3ncc(-c4cc(OC)c5c(C#N)cnn5c4)c3C)CC2)CC1 [Example 82]
Prompt: Between a and b , whose measured FGFR3 Enz kobs reads higher? Indicate which entry you chose by stating its label.
Response: a
(a: 0.00626 min⁻¹, b: 0.00319 min⁻¹)

I: C=CC(=O)N1CCC(n2cc(-c3cc(OC)c4c(C#N)cnn4c3)cn2)CC1 [Example 11]
II: C=CC(=O)N1CC(C(=O)N2CCC(n3cc(-c4cc(OC)c5c(C#N)cnn5c4)c(CC)n3)CC2)C1 [Example 97]
Prompt: Consider I and II . Which of these has its FGFR3 Enz kobs at a higher number? Answer format: the label of the selected item.
Response: II
(II: 0.01865 min⁻¹, I: 0.00206 min⁻¹)

I: C=CC(=O)N1CCC[C@H](C(=O)N2CC[C@H](n3cc(-c4cc(OC)c5c(C#N)cnn5c4)cn3)C2)C1 [Example 63]
II: C=CC(=O)N1CCC(C#N)(C(=O)N2CCC(n3cc(-c4cc(OC)c5c(C#N)cnn5c4)cn3)CC2)CC1 [Example 14]
III: COc1cc(-c2cnn(C3CCN(C(=O)C4CN(C(=O)/C=C/CN(C)C)C4)CC3)c2)cn2ncc(C#N)c12 [Example 143]
IV: C=CC(=O)N1CC(F)(C(=O)N2CCC(n3ncc(-c4cc(OC)c5c(C#N)cnn5c4)c3C)CC2)C1 [Example 85]
V: C=CC(=O)N1CC2(CCC(C(=O)N3CCC(n4cc(-c5cc(OC)c6c(C#N)cnn6c5)cn4)CC3)CC2)C1 [Example 21]
Prompt: # rank_down: sort by FGFR3 Enz kobs, max first Answer format: the labels, in the requested order.
Response: IV, III, II, V, I
(IV: 0.1061 min⁻¹, III: 0.02052 min⁻¹, II: 0.00997 min⁻¹, V: 0.00661 min⁻¹, I: 0.0013 min⁻¹)

P: C=CC(=O)Nc1cccc(C(=O)N2CCC(n3cc(-c4cc(OC)c5c(C#N)cnn5c4)cn3)CC2)c1 [Example 22]
Q: C=CC(=O)N1CC(C(=O)N2CCC3(CC2)CN(c2ccc(-c4cc(OC)c5c(C#N)cnn5c4)cn2)C3)C1 [Example 102]
Prompt: Please tell me which of the two, P or Q , has the higher reported FGFR3 Enz kobs value. Give the label under which the chosen entry appears.
Response: Q
(Q: 0.02912 min⁻¹, P: 0.0108 min⁻¹)

A: C=CC(=O)Nc1cccc(C(=O)N2CC[C@@H](n3cc(-c4cc(OC)c5c(C#N)cnn5c4)cn3)C2)c1 [Example 56]
B: C=CC(=O)Nc1ccc(C(=O)N2CC[C@H](n3cc(-c4cc(OC)c5c(C#N)cnn5c4)cn3)C2)cc1OC [Example 71]
C: COc1cc(-c2cnc(N3CCN(C(=O)C4(F)CN(C(=O)/C=C/CN(C)C)C4)CC3)cc2C)cn2ncc(C#N)c12 [Example 169]
D: COc1cc(-c2nnn(C3CCN(C(=O)C4(F)CN(C(=O)/C=C/CN(C)C)C4)CC3)c2C)cn2ncc(C#N)c12 [Example 164]
E: C=CC(=O)N1CC2(CC(C(=O)N3CCC(n4cc(-c5cc(OC)c6c(C#N)cnn6c5)cn4)CC3)C2)C1 [Example 47]
Prompt: Endpoint returns the given compounds ordered by ascending FGFR3 Enz kobs. Respond with an ordered listing of the labels, as requested.
Response: E, A, B, C, D
(E: 0.00501 min⁻¹, A: 0.01264 min⁻¹, B: 0.02545 min⁻¹, C: 0.08 min⁻¹, D: 0.1705 min⁻¹)

P: C=CC(=O)N1CCC(F)(C(=O)N2CCC(n3cc(-c4cc(OC)c5c(C#N)cnn5c4)cn3)CC2)C1 (centres unmarked) [Example 30]
Q: C=CC(=O)N1CC(C(=O)N2CCN(c3ccc(-c4cc(OC)c5c(C#N)cnn5c4)cc3)CC2)C1 [Example 100]
R: C=CS(=O)(=O)N1CC(C(=O)N2CCC(n3cc(-c4cc(OC)c5c(C#N)cnn5c4)cn3)CC2)C1 [Example 192]
S: C=CC(=O)N1CC(CN2CC(n3cc(-c4cc(OC)c5c(C#N)cnn5c4)cn3)C2)C1 [Example 81]
Prompt: Arrange items by their FGFR3 Enz kobs values in increasing order. Would you mind listing the labels in the order asked for?
Response: S, P, Q, R

A: C=CC(=O)N1CC(CN2C[C@H]3C[C@@H]2CN3c2ccc(-c3cc(OC)c4c(C#N)cnn4c3)cn2)C1 [Example 108]
B: C=CC(=O)N1CC(F)(C(=O)N2CCC(n3cc(-c4cc(OC)c5c(C#N)cnn5c4)cn3)CC2)C1 [Example 37]
Prompt: Name the one with the greater FGFR3 Enz kobs value, either A or B as given. Your answer should be the label attached to the chosen record.
Response: B
(B: 0.07092 min⁻¹, A: 0.01344 min⁻¹)
